# study target: CAR (NR1I3) (Homo sapiens)
# Sequence (Q14994 1-352): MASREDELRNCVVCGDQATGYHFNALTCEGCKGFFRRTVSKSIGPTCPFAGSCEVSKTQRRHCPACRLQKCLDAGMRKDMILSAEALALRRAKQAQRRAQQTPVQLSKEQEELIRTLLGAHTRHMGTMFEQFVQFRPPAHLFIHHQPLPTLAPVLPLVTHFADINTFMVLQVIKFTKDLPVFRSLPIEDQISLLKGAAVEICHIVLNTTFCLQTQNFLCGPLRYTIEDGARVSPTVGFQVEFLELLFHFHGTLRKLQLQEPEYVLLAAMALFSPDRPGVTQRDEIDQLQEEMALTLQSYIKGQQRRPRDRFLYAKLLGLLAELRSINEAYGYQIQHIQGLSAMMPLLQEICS
# protocol summary: NVS_NR_hCAR_Agonist: Human CAR CITCO Agonist (cell-free HTS)
# Format: biochemical
# particulars: scale not given, looks like -log10 of molar active concentration, 0 = no activity
# Experimental: These are a collection of biochemical assays measuring binding constants and enzyme inhibition values. Chemicals were initially screened at a single concentration in duplicate wells at a concentration of 10 [drawing 63] […] Cell-free HTS Assays: A collection of biochemical assays measuring binding constants and enzyme inhibition values. […] Concentration-response curves were fit in GeneData Screener (Basel, Switzerland) Condeseo module using the Hill equation and AC50 values were determined. […]
parameter measured: NVS_NR_hCAR_Agonist

Take a look at these entries with their results.
| compound | NVS_NR_hCAR_Agonist |
| --- | --- |
| CC(C)(c1ccc(O)cc1)c1ccc(O)cc1 | 0 |
| Nc1cnn(-c2ccccc2)c(=O)c1Cl | 0 |
| O=C1C2CC=CCC2C(=O)N1SC(Cl)(Cl)Cl (stereo not drawn) | 0 |
| N#Cc1cc(Br)c(O)c(Br)c1 | 0 |
| COc1nc(C)nc(NC(=O)NS(=O)(=O)c2ccccc2Cl)n1 [r63] | 0 |
| CNC(=O)Oc1cccc2ccccc12 | 0 |
| CCCCOCN(C(=O)CCl)c1c(CC)cccc1CC | 0 |
| Cc1c(COC(=O)C2C(/C=C(\Cl)C(F)(F)F)C2(C)C)cccc1-c1ccccc1 (stereo not drawn) | 0 |

Batch of 2 compounds: report NVS_NR_hCAR_Agonist for each.
1. OB(O)O
2. CCC(C)n1c(=O)[nH]c(C)c(Br)c1=O (stereo not drawn)

0
0

Batch of 2 compounds: report NVS_NR_hCAR_Agonist for each.
1. O=C(Nc1ccccc1-c1ccc(Cl)cc1)c1cccnc1Cl
2. COC(=O)c1ccccc1CS(=O)(=O)NC(=O)Nc1nc(OC)cc(OC)n1

0
0
